Kindly state CC50 for each of the entries shown.
- Tested on: MT4
- PROCEDURE_SUMMARY: Toxicity against human MT4 cells by MTT assay
- Assay type: cell-based

# input Can you share its CC50? I mean this compound: `O=c1[nH]cnc2c1ncn2[C@H]1CC[C@@H](CO)O1`
# output > 100 µg/mL

# input // CC50 lookup, key: `Nc1ccn([C@@H]2C=C[C@@]3(CO)C[C@@H]23)c(=O)n1`
# output > 100 µg/mL

# input Using the record for `Nc1ccn([C@H]2CC[C@@H](CO)O2)c(=O)n1` , report its CC50.
# output 10.66 µg/mL

# input Any idea what its CC50 is? The compound is `O=c1nc(O)ccn1[C@H]1C=C[C@]2(CO)C[C@H]12`
# output > 100 µg/mL

# input Consider the compound `Nc1ccn([C@H]2C=C[C@]3(CO)C[C@H]23)c(=O)n1` and give its measured CC50.
# output 61.8 µg/mL

# input Find the recorded CC50 belonging to `Cc1cn([C@H]2C=C[C@]3(CO)C[C@H]23)c(=O)[nH]c1=O` and report it.
# output 8.558 µg/mL

# input Entry `Cc1cn([C@@H]2C=C[C@@]3(CO)C[C@@H]23)c(=O)[nH]c1=O` : reported CC50 = ?
# output > 100 µg/mL

# input compound: `Nc1ncnc2c1ncn2[C@H]1C=C[C@]2(CO)C[C@H]12` ; wanted: its CC50
# output > 100 µg/mL

# input May I ask what CC50 has been recorded for `Nc1nc(O)c2ncn([C@@H]3C=C[C@@]4(CO)C[C@@H]34)c2n1` ?
# output > 100 µg/mL

---

Please respond with reported Ratio CC50/IC50 for every item in the list.
- PROCEDURE_SUMMARY: Selectivity index, ratio of CC50 for human MT4 cells to IC50 for HIV2 ROD
- Type: functional
Give the figure only, with no unit attached.

# input Item `Cc1cn([C@H]2C=C[C@]3(CO)C[C@H]23)c(=O)[nH]c1=O` has what recorded Ratio CC50/IC50?
# output 76

# input Please report the recorded Ratio CC50/IC50 for `Nc1ccn([C@H]2CC[C@@H](CO)O2)c(=O)n1` .
# output 266.7

---

- PROCEDURE_SUMMARY: Selectivity index, ratio of CC50 for human MT4 cells to IC50 for HIV2 ROD
- Type: functional
PROPERTY_LABEL: Ratio CC50/IC50

# input If you can, please state the reported Ratio CC50/IC50 value of `Cc1cn([C@@H]2C=C[C@@]3(CO)C[C@@H]23)c(=O)[nH]c1=O` .
# output >44.05

# input Item `O=c1[nH]cnc2c1ncn2[C@H]1CC[C@@H](CO)O1` has what recorded Ratio CC50/IC50?
# output >17.38

# input Look at this compound and give its reported Ratio CC50/IC50. `Nc1ccn([C@H]2C=C[C@]3(CO)C[C@H]23)c(=O)n1`
# output <1

The measured values listed here are drawn from ChEMBL document CHEMBL1795267.
